Target: Serine protease 1 (Bos taurus, UniProt P00760)
Sequence (P00760 whole entry): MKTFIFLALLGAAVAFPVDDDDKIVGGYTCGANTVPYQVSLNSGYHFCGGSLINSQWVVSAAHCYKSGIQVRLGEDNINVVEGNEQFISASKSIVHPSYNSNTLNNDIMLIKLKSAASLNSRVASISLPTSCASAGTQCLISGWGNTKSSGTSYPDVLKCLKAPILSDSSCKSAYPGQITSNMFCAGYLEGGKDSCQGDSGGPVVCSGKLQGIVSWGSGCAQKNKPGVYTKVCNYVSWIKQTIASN
MEASURED_QUANTITY: pKi
Numbers only, as −log10 of the molar value.

Prompt line: What value of pKi has been reported for the following molecule? CCCc1ccc(S(=O)(=O)N[C@@H](Cc2ccc(C(=N)N)cc2)C(=O)N(C)C2CCCC2)cc1
Response line: 5.61
